// data source = ChEMBL document CHEMBL1133187

system: Rattus norvegicus; test: Percent inhibition of adjuvant-induced arthritis at 10 mg/kg po; assay type: functional
Values of inhibition in vivo at 10 mg/kg greater than or equal to 10% map to T; values below map to F.

Below, 3 compounds whose answers are already recorded.
> print(dat)
                              smiles.string  group
1  CON1CC/C(=C\c2cc(C(C)(C)C)c(O)c(C(C)(C)C)c2)S1(=O)=O      T
2  CCCN1CC/C(=C\c2cc(C(C)(C)C)c(O)c(C(C)(C)C)c2)S1(=O)=O      T
3  CCN1CC/C(=C\c2cc(C(C)(C)C)c(O)c(C(C)(C)C)c2)S1(=O)=O      T

Threshold query (inhibition in vivo at 10 mg/kg >= 10%) on CC(C)(C)c1cc(/C=C2\CCNS2(=O)=O)cc(C(C)(C)C)c1O
F

Dear colleague, could you confirm whether CC(C)(C)c1cc(/C=C2\CCN(O)S2(=O)=O)cc(C(C)(C)C)c1O has inhibition in vivo at 10 mg/kg at or above 10%?
F

Textbook exercise: given the entry CC(C)(C)c1cc(/C=C2\CCN(C3CC3)S2(=O)=O)cc(C(C)(C)C)c1O , state whether its inhibition in vivo at 10 mg/kg is greater than or equal to 10%.
T

API: above_or_equal(metric=inhibition in vivo at 10 mg/kg, cutoff=10%) for item CON1CC/C(=C/c2cc(C(C)(C)C)c(O)c(C(C)(C)C)c2)S1(=O)=O
F

Does inhibition in vivo at 10 mg/kg meet or surpass 10% for CCN1CC/C(=C/c2cc(C(C)(C)C)c(O)c(C(C)(C)C)c2)S1(=O)=O ?
T

====

System: Cyclooxygenase (Rattus norvegicus, UniProt P35355+Q63921) | Read-out: IC50
Lab book: enter the figure in µM, no units written.

> print(dat)
                              smiles.string  numeric.result
1  CC(C)(C)c1cc(/C=C2\CCN(c3cccnc3)S2(=O)=O)cc(C(C)(C)C)c1O            0.32
2  CC(C)(C)c1cc(/C=C2/CCN(O)S2(=O)=O)cc(C(C)(C)C)c1O             0.7
3  CON1CC/C(=C/c2cc(C(C)(C)C)c(O)c(C(C)(C)C)c2)S1(=O)=O          0.0025
4  CCCN1CC/C(=C\c2cc(C(C)(C)C)c(O)c(C(C)(C)C)c2)S1(=O)=O           0.013
5  CC(C)(C)c1cc(/C=C2\CCN(C3CC3)S2(=O)=O)cc(C(C)(C)C)c1O          0.0025

GET IC50 | system: Cyclooxygenase (Rattus norvegicus, UniProt P35355+Q63921) | item: CN(C)CCN1CC/C(=C\c2cc(C(C)(C)C)c(O)c(C(C)(C)C)c2)S1(=O)=O
0.34

Name the value of IC50 reported for CC(C)(C)c1cc(/C=C2\CCN(CCO)S2(=O)=O)cc(C(C)(C)C)c1O when tested on Cyclooxygenase (Rattus norvegicus, UniProt P35355+Q63921).
0.24

State measured IC50 of the compound CC(C)(C)c1cc(/C=C2\CCCNS2(=O)=O)cc(C(C)(C)C)c1O with Cyclooxygenase (Rattus norvegicus, UniProt P35355+Q63921).
0.0062

State IC50 on Cyclooxygenase (Rattus norvegicus, UniProt P35355+Q63921). Entry: CC(C)N1CC/C(=C\c2cc(C(C)(C)C)c(O)c(C(C)(C)C)c2)S1(=O)=O
0.32

Identify measured IC50 obtained with Cyclooxygenase (Rattus norvegicus, UniProt P35355+Q63921) for CC(C)(C)c1cc(/C=C2\CCN(c3ccccn3)S2(=O)=O)cc(C(C)(C)C)c1O .
1
